TEST_DETAILS: Cell Viability - LYMP2-003 (AID 965);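 also: cells exposed to compounds for 24 h before reading; nearly all actives have a fitted effect of over 50% in size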
CONDITION_INFO: LYMP2-003 lymphoblastoid cell viability; series mostly up to 92.2 µM
Inconclusive results are not listed. The source made the active and inactive calls. Calls follow the shape of the dose curve; as a rule, active = well fitted cell-killing curve with a large enough effect; inconclusive = small, poorly fitted or top-dose-only effect, or effect the other way; inactive = flat fitted curve, though single readings scatter.
Form entry, call: pick from T = active, F = inactive

{"columns": ["MOLECULE", "CATEGORY"],
 "data": [
  ["[CH3][Hg][Cl]", "T"],
  ["N#CSCSC#N", "T"],
  ["O=[N+]([O-])C(Br)Br", "T"],
  ["Nc1ccc(-c2ccc(N)c(O)c2)cc1O", "T"]
]}

Recorded test outcome, item O=C1C2(Cl)C3(Cl)C4(Cl)C(Cl)(Cl)C5(Cl)C3(Cl)C1(Cl)C5(Cl)C24Cl (centres undefined) T

Each molecule tested received a call. Report the one for O=C(O)C1C(C(=O)O)C2(Cl)C(Cl)=C(Cl)C1(Cl)C2(Cl)Cl (centres undefined) . F

Recorded test outcome, item CC(C)CC(C)Nc1ccc(Nc2ccccc2)cc1 (centres undefined) T

// return assay outcome for "C=CC(=O)OCC(CO)(COC(=O)C=C)COC(=O)C=C" T

Recorded call for "CN(C)c1ccc(N=O)cc1" ? T
